- testMethodNotes: in vivo
- appliedConditions: mouse, in vivo, po, 30 mg/kg
Tmax for assorted molecules
quantityName: Tmax (min)

• C=CC(=O)N1CCCC(Nc2nc(Nc3cc(C)ns3)c3c(c2F)CNC3=O)C1 (centres unmarked) = 4.8
• C=CC(=O)N1CCCC(Nc2nc(Nc3ccc(N4CCOCC4)c(F)c3)c3c(c2F)CNC3=O)C1 (centres unmarked) = 4.8
• C=CC(=O)N1CCCC(Nc2nc(Nc3ccc(N4CCOCC4C)cc3)c3c(c2F)CNC3=O)C1 (centres unmarked) = 30
• C=CC(=O)N1CCCC(Nc2nc(Nc3ccc(N4CCOCC4C)c(F)c3)c3c(c2F)CNC3=O)C1 (centres unmarked) = 15
• C=CC(=O)N1CCCC(Nc2nc(Nc3ccc(N4CCOCC4)c(Cl)c3)c3c(c2F)CNC3=O)C1 (centres unmarked) = 4.8

---

- testMethodNotes: in vivo
- appliedConditions: mouse, in vivo, po, 30 mg/kg
Tmax for assorted compounds
quantityName: Tmax (min)

- C=CC(=O)N1CCCC(Nc2nc(Nc3ccc(N4CCOCC4)cc3F)c3c(c2F)CNC3=O)C1 (stereo not shown): 15
- C=CC(=O)N1CCCC(Nc2nc(Nc3ccc(N4CCOCC4)cc3)c3c(c2F)CNC3=O)C1 (stereo not shown): 4.8
- C=CC(=O)N1CCCC(Nc2nc(Nc3ccc(N4CCN(C5COC5)CC4C)cc3)c3c(c2F)CNC3=O)C1 (stereo not shown): 4.8
- C=CC(=O)N1CCCC(N(C)c2nc(-c3cnn(C)c3)c3c(c2F)CNC3=O)C1 (stereo not shown): 4.8

---

- targetOrTestSystem: BTK WT (Homo sapiens (Human))
- Sequence (Q06187 whole entry): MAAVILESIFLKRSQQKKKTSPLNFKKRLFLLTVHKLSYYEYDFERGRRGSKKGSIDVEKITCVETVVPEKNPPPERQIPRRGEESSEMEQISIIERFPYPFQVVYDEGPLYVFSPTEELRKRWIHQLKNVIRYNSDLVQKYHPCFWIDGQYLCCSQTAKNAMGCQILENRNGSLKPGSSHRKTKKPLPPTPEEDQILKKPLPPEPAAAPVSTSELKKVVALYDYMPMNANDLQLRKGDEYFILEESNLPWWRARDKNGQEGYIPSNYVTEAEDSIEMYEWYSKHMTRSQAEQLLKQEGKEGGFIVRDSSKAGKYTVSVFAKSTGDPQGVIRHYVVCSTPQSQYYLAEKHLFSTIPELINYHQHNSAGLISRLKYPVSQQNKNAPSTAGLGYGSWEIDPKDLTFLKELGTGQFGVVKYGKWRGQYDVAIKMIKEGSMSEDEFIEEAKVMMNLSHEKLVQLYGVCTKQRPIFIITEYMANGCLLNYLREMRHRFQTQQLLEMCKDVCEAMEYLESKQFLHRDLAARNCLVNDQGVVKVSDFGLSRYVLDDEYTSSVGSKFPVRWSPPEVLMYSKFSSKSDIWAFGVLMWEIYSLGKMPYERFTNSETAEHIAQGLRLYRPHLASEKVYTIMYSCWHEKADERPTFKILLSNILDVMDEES
pIC50: −log10 of the molar value.
quantityName: pIC50

* C=CC(=O)N1CC(Nc2nc(-c3cnn(C)c3)c3c(c2F)CNC3=O)CCC1C (stereo not shown) [Compound G-26] | 7.57
* C=CC(=O)N1CCC[C@H](Nc2nc(-c3cnn(C)c3)c3c(c2F)CNC3=O)[C@@H]1C [Compound G-109] | 7.21
* C=CC(=O)N1CCCC(N(C)c2nc(-c3cnn(CCN4CCOCC4)c3)c3c(c2F)CNC3=O)C1 (stereo not shown) [Compound G-64] | 7.21
* C=CC(=O)N1CCCC(Nc2nc(Nc3ccc(OCCO)cc3)c3c(c2F)CNC3=O)C1 (stereo not shown) [Compound G-16] | 8.70

---

- testMethodNotes: in vivo
- appliedConditions: male, ICR, mouse, in vivo, po, 30 mg/kg
Tmax for assorted compounds
quantityName: Tmax (min)

- C=CC(=O)N1CCCC(N(C)c2nc(Nc3cc(C)ns3)c3c(c2F)CNC3=O)C1 (stereo not shown) [Compound G-72]: 15
- C=CC(=O)N1CCCC(N(C)c2nc(Nc3ccc(N4CCOCC4)cc3)c3c(c2F)CNC3=O)C1 (stereo not shown) [Compound G-71]: 4.8
- C=CC(=O)N1CC(Nc2nc(-c3cnn(C)c3)c3c(c2F)CNC3=O)CCC1C (stereo not shown) [Compound G-26]: 4.8
- C=CC(=O)N1CCC[C@H](Nc2nc(Nc3ccc(N4CCOCC4)cc3)c3c(c2F)CNC3=O)C1 [Compound G-114]: 4.8

---

half-time T1/2 for assorted compounds
- testMethodNotes: in vivo
- appliedConditions: mouse, in vivo, po, 30 mg/kg
quantityName: half-time T1/2 (h)

* C=CC(=O)N1CCCC(Nc2nc(Nc3ccc(N4CCOCC4)c(Cl)c3)c3c(c2F)CNC3=O)C1 (stereo not drawn) | 2.30
* C=CC(=O)N1CCCC(Nc2nc(Nc3ccc(N4CCOCC4)cc3F)c3c(c2F)CNC3=O)C1 (stereo not drawn) | 1.72
* C=CC(=O)N1CCCC(Nc2nc(Nc3cc(C)ns3)c3c(c2F)CNC3=O)C1 (stereo not drawn) | 3.25
* C=CC(=O)N1CCCC(Nc2nc(Nc3ccc(N4CCOCC4)cc3)c3c(c2F)CNC3=O)C1 (stereo not drawn) | 2.47
* C=CC(=O)N1CCCC(Nc2nc(Nc3ccc(N4CCOCC4C)cc3)c3c(c2F)CNC3=O)C1 (stereo not drawn) | 1.21
* C=CC(=O)N1CCCC(N(C)c2nc(-c3cnn(C)c3)c3c(c2F)CNC3=O)C1 (stereo not drawn) | 10.57
* C=CC(=O)N1CCCC(Nc2nc(Nc3ccc(N4CCOCC4C)c(F)c3)c3c(c2F)CNC3=O)C1 (stereo not drawn) | 1.73
* C=CC(=O)N1CCCC(Nc2nc(Nc3ccc(N4CCN(C5COC5)CC4C)cc3)c3c(c2F)CNC3=O)C1 (stereo not drawn) | 1.44
* C=CC(=O)N1CCCC(Nc2nc(Nc3ccc(N4CCOCC4)c(F)c3)c3c(c2F)CNC3=O)C1 (stereo not drawn) | 1.19
